Cited source for all entries: BindingDB's records for PubMed 38457911

# tested.target: E3 ubiquitin-protein ligase CBL
# method.notes: Inhibition of c-Cbl (unknown origin) by HTRF method
endpoint: IC50 (nM)
Reply numerically in nM, unit not repeated.

Name the reported IC50 value associated with the compound CC(C)[C@H]1CN(C)CCN1Cc1cc(C(=O)Nc2cccc(C3([C@@H](F)c4nncn4C)CC(F)(F)C3)c2)nc(C2CC2)c1 8

###

# tested.target: E3 ubiquitin-protein ligase CBL
# method.notes: Inhibition of c-Cbl (unknown origin) expressed in Escherichia coli measured for 90 mins by HTRF method
Below, each of the compounds is paired with its reported IC50 value.
Reply numerically in nM, unit not repeated.

1) CC(c1cc(C(=O)Nc2cccc([C@]3(c4nncn4C)C[C@@H](CC#N)C3)c2)nc2cc[nH]c12)N1CCC[C@H](C)C1 (some centres not stated); 40

Value wanted: IC50 (E3 ubiquitin-protein ligase CBL) of entry Cn1cnnc1[C@]1(c2cccc(NC(=O)c3cc(CN4CCC[C@H](C(F)F)C4)cn4ccnc34)c2)C[C@H](CC#N)C1 10
